- assayedTarget: ITK (Homo sapiens, UniProt Q08881)
- Sequence (Q08881 whole entry): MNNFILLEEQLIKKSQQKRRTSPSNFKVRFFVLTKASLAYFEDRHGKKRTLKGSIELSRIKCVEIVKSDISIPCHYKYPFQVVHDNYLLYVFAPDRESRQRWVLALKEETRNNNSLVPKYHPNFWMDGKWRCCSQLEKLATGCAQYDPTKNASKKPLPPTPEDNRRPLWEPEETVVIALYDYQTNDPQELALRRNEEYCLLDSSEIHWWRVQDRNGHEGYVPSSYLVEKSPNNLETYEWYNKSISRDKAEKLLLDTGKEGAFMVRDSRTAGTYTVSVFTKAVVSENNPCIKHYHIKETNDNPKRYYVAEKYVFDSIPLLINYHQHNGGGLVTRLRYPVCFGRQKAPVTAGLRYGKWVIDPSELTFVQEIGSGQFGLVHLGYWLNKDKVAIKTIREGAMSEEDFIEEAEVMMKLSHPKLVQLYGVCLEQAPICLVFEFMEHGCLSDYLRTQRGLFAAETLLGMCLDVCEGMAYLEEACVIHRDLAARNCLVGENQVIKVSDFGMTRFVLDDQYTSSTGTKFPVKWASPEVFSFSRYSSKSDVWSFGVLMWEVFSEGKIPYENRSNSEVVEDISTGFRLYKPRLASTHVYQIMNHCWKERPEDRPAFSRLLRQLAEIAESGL
- methodSummary: ITK degradation HiBiT assay
- Type: cell-based
- Parameters: expressed in transfected cells; host or cells: Molt4 (ATCC CRL-1552), monoclonal clone 1C10, engineered to carry the HiBiT tag
- measurementSetup: C-terminal HiBiT-tagged Molt4 cells, 4 hrs
measuredAttribute: DC50 (nM)
Give bare numbers, in nM.

// for each compound below, give its DC50
1. C[C@@]12Cc3[nH]nc(-c4cc5ccc(N6CCC7(CCN(CC8CCN(c9ccc(C%10CCC(=O)NC%10=O)cn9)CC8)CC7)C6=O)cc5[nH]4)c3C[C@@H]1C2(F)F (stereo partly drawn)
2. CC1(C)CCc2c(-c3cc4ccc(C(=O)N5CCN(CC6CCN(c7ccc(C8CCC(=O)NC8=O)cn7)CC6)CC5)cc4[nH]3)n[nH]c2C1 (stereo not drawn)
3. C[C@@]12Cc3[nH]nc(C(=O)Nc4ccc(C5CCN(CC6CCN(c7ccc(C8CCC(=O)NC8=O)cc7)CC6)CC5)cc4)c3C[C@@H]1C2(F)F (stereo partly drawn)

1. 0.27
2. 4.6
3. 1.8
